# assay_notes: chemical genetic growth profiling, strain panel (AID 1159580);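 note: tested at 20 µM; growth read once vehicle control cultures reached saturation at 30 °C; 1 = growth at the plate median or of vehicle wells; lower values mean less growth of the strain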
# condition_description: S. cerevisiae deletion strains, growth OD, locus YOL006C, strain TOP1
The campaign covered roughly 5,500 compounds. About 2,000 (36%) were called active. Roughly 18% stayed inconclusive and do not appear here. Cut-off read from the data, not from the text of the source: active = normalized growth mostly below about 0.91 (no sharp cut-off); inconclusive = no clear call, values can overlap the other calls; inactive = mostly above about 0.92. Some of the results follow.
Classes used: 1.0 for active, 0.0 for inactive

molecule	class_label
O[C@H]1C=C2CCN3Cc4cc5c(cc4C(C23)[C@@H]1O)OCO5 (some centres not stated)	0.0
C1CCc2nnnn2CC1	0.0
O=C1C[C@@H](c2ccc(O)cc2)Oc2cc(O)cc(O)c21	0.0
CN(C)/C=C(\C#N)C(=O)Nc1ccc(F)c(Cl)c1	0.0
CC12CCC(C1)C(C)(C)C2NC(=O)c1cccs1 (configuration not stated)	0.0
CNc1ccccc1C(=O)N1CCc2c([nH]c3ccccc23)C1=O	0.0
CN1C/C(=C\c2ccccc2Cl)C(=O)/C(=C/c2ccccc2Cl)C1	1.0
O=C(O)CSCC(=O)N1CCc2c([nH]c3ccccc23)C1C(F)(F)F (configuration not stated)	0.0
CCC(C(=O)O)c1ccccc1 (configuration not stated)	0.0
COC(=O)C1[C@H]2C[C@H]3c4[nH]c5ccccc5c4CCN3C[C@@H]2CC[C@@H]1O (some centres not stated)	0.0
c1ccc(CC2=NCCN2)cc1	0.0
COc1cccc2c1CCC1CC(=O)CCC21C (configuration not stated)	0.0
CN(C)/C=C1\C(=O)c2ccccc2N(C)S1(=O)=O	0.0
COC(=O)[C@@H]1C(O)CC[C@H]2CN3CCc4c([nH]c5ccccc45)[C@@H]3C[C@@H]21 (some centres not stated)	0.0
Cc1ccc2c(c1)CC[C@H]1CC(=O)CC[C@]21C	0.0
C=CC(C)(C)c1c2c(c(O)c3c(=O)c4ccc(O)c(O)c4oc13)C=CC(C)(C)O2	1.0
N#Cc1c(Cl)c(Cl)c(Cl)c(C#N)c1Cl	0.0

---

# assay_notes: chemical genetic growth profiling, strain panel (AID 1159580)
# condition_description: S. cerevisiae deletion strains, growth OD, locus YEL003W, strain gim4, stronger effect = lower value
Among all 5,500 compounds or so, about 2,000 (36%) were called active. Inconclusive results (about 18%) are left out. The list shows a part of the results.
measurement_kind: normalized growth

compound	observed_measurement
CN1CCCC(n2nc(Cc3ccc(Cl)cc3)c3ccccc3c2=O)CC1 (stereo unspecified)	0.948
CC(C)(CO)C(O)C(=O)NCCCO (stereo unspecified)	1.02
O=C(/C=C/C=C/c1ccc2c(c1)OCO2)N1CCCCC1	0.94
CC(=O)O[C@]1(C(C)=O)CCC2C3C=C(C)C4=CC(=O)CCC4(C)C3CCC21C (stereo partly specified)	0.941
CN1C2CC3C[C@H]1C(O3)C2O (stereo partly specified)	1.02
CN=C(NC#N)NCCSCc1nc(N=C(N)N)cs1	0.977
CC(=O)[C@H]1CCC2C3C[C@H](C)C4=CC(=O)CC[C@]4(C)C3[C@@H](O)C[C@@]21C (stereo partly specified)	1
COc1cc(OC)c2c(c1)O[C@H](c1ccc(OC)c(OC)c1)[C@@H](O)C2	0.984
CCOC(=O)c1ncn2c1CN(C)C(=O)c1cc(F)ccc1-2	1.02
COc1cc2c(cc1OC)C(=O)C(CC1CCN(Cc3ccccc3)CC1)C2 (stereo unspecified)	0.988
CC(=O)OC1CC23CC24CCC(OC2OCC(O)C(O)C2O)C(C)(C)C4CCC3C2(C)CC3OC4(CC(C)C3C12C)OC(O)C1(C)OC41 (stereo unspecified)	1.01

---

# assay_notes: chemical genetic growth profiling, strain panel (AID 1159580);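 note: tested at 20 µM; growth read once vehicle control cultures reached saturation at 30 °C; 1 = growth at the plate median or of vehicle wells; lower values mean less growth of the strain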
# condition_description: S. cerevisiae deletion strains, growth OD, locus YLL001W, strain dnm1, stronger effect = lower value
About 2,000 (36%) of roughly 5,500 compounds were called active. Not shown: some 18% with an inconclusive outcome. Some of the results follow.
measurement_kind: normalized growth

compound	measurement_kind	observed_measurement
O=C(O)COc1cc(Cl)c(Cl)cc1Cl	normalized growth	1.01
Cc1c(N(C)C)c(=O)n(-c2ccccc2)n1C	normalized growth	0.972
Cc1cc(OC(=O)N2CCCCC2)c(C(C)C)cc1[N+](C)(C)C	normalized growth	1
COC(=O)C1[C@H]2C[C@H]3c4[nH]c5ccccc5c4CCN3C[C@@H]2CC[C@@H]1O (stereo partly specified)	normalized growth	0.984
C=C1CC[C@H](O)C/C1=C/C=C1\CCC[C@]2(C)C([C@H](C)/C=C/[C@H](C)C(C)C)CC[C@@H]12 (stereo partly specified)	normalized growth	1.02
CCC1(c2ccc(N)cc2)CCC(=O)NC1=O (stereo unspecified)	normalized growth	0.903
COc1ccc2cc1Oc1ccc(cc1)C[C@H]1c3cc(c(OC)cc3CCN1C)Oc1c(OC)c(OC)cc3c1[C@H](C2)N(C)CC3	normalized growth	0.986
CCOC(=O)c1ncn2c1CN(C)C(=O)c1cc(F)ccc1-2	normalized growth	1.01
COc1ccc2c(c1)OC[C@@H](Cc1ccc(OC)c(OC)c1)[C@@H]2O	normalized growth	0.99
CC(C)(CO)C(O)C(=O)NCCCO (stereo unspecified)	normalized growth	1.02
CC(C)(C)CC(C)(C)c1ccc(OCCOCC[N+](C)(C)Cc2ccccc2)cc1	normalized growth	0.064
COc1ccc2cc1Oc1ccc(cc1)C[C@H]1c3c(cc4c(c3Oc3cc5c(cc3OC)CCN(C)[C@@H]5C2)OCO4)CCN1C	normalized growth	0.959
OC(CCN1CCCCC1)(c1ccccc1)c1ccccc1	normalized growth	1.01
CC(C)[N+](C)(CCOC(=O)C1c2ccccc2Oc2ccccc21)C(C)C	normalized growth	1.01
CCCCCCCC/C=C/CCCCCCCCOP(=O)([O-])OCC[N+](C)(C)C	normalized growth	0.0557
Cc1cc(C(C)(C)CC(C)(C)C)ccc1OCCOCC[N+](C)(C)Cc1ccccc1	normalized growth	0.0592
CO[C@H]1C[C@H](O[C@H]2[C@H](C)[C@@H](OC3O[C@H](C)C[C@H](N(C)C)[C@H]3O)[C@@H](C)C[C@]3(CO3)C(=O)[C@H](C)[C@@H](O)[C@@H](C)[C@@H](C)OC(=O)[C@@H]2C)O[C@@H](C)[C@@H]1O (stereo partly specified)	normalized growth	1.06
CCCCCCCCCCCCC[N+](C)(C)Cc1ccccc1	normalized growth	0.0643
S=C=NCc1ccccc1	normalized growth	0.133
CC[C@@H](CO)NCCN[C@@H](CC)CO	normalized growth	1.05
COc1ccc2c(c1)[C@@]1(C)CCC(=O)C[C@H]1CC2	normalized growth	0.951

---

Below, each of the molecules is paired with its reported normalized growth value.
# assay_notes: chemical genetic growth profiling, strain panel (AID 1159580);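 note: tested at 20 µM; growth read once vehicle control cultures reached saturation at 30 °C; 1 = growth at the plate median or of vehicle wells; lower values mean less growth of the strain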
# condition_description: S. cerevisiae deletion strains, growth OD, locus YJR066W, strain TOR1, stronger effect = lower value
The campaign covered roughly 5,500 compounds. About 2,000 (36%) were called active. Another 18% or so got no clear call; they are omitted. The list shows a part of the results.
measurement_kind: normalized growth

molecule	measurement_kind	observed_measurement
O=C(O)c1ccccc1OP(=O)(O)O	normalized growth	0.875
C[C@@H]1O[C@@H](O[C@H]2[C@@H](Oc3cc(O)c4c(c3)O[C@H](c3ccc(O)cc3)CC4=O)O[C@H](CO)[C@@H](O)[C@@H]2O)[C@H](O)[C@H](O)[C@H]1O	normalized growth	0.926
CC(=O)OCC1=C(C(=O)O)N2C(=O)[C@@H](N)C2SC1 (stereo partly specified)	normalized growth	0.976
NCCCN=c1ccc2c3c1c(O)c1c(O)ccc(=O)c1c3[nH]n2CCNCCO	normalized growth	1.01
O=C(Nc1cc(Cl)cc(Cl)c1)Nc1cc(-c2cccs2)[nH]n1	normalized growth	0.762
CC(C)(CO)C(O)C(=O)NCCCO (stereo unspecified)	normalized growth	0.964
CC(=O)OCC(CCn1cnc2cnc(N)nc21)COC(C)=O	normalized growth	0.934
CC(=O)O[C@]1(C(C)=O)CCC2C3C=C(Cl)C4=CC(=O)CC[C@]4(C)C3CC[C@@]21C (stereo partly specified)	normalized growth	0.98
O=[N+]([O-])O[C@H]1CO[C@H]2[C@@H]1OC[C@H]2O[N+](=O)[O-]	normalized growth	0.946
C=C1CC2C3C=C(C)C4=CC(=O)CC[C@]4(C)C3CC[C@]2(C)[C@@]1(OC(C)=O)C(C)=O (stereo partly specified)	normalized growth	0.922
CCC(C(N)=O)c1ccccc1 (stereo unspecified)	normalized growth	0.899

---

# assay_notes: chemical genetic growth profiling, strain panel (AID 1159580);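 note: tested at 20 µM; growth read once vehicle control cultures reached saturation at 30 °C; 1 = growth at the plate median or of vehicle wells; lower values mean less growth of the strain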
# condition_description: S. cerevisiae deletion strains, growth OD, locus YMR078C, strain ctf18
Hit rate of the full screen: of about 5,500 compounds, about 2,000 (36%) were called active. Roughly 18% stayed inconclusive and do not appear here. Cut-off read from the data, not from the text of the source: active = normalized growth mostly below about 0.91 (no sharp cut-off); inconclusive = no clear call, values can overlap the other calls; inactive = mostly above about 0.92. The list shows a part of the results.
Classes used: True = active, False = inactive

compound	class_label
COc1ccc(-c2coc3c(O)c(OC)ccc3c2=O)cc1	True
COc1ccc(-c2coc3c(OC)c(OC)cc(OC)c3c2=O)cc1	False
OCc1ccccc1O[C@@H]1O[C@H](CO)[C@@H](O)[C@H](O)[C@H]1O	False
COc1ccc(-c2coc3c(OC)c(OC)cc(O)c3c2=O)cc1	False
CNC1(C)C2CCC(C2)C1(C)C (stereo unspecified)	False
CC(=O)OCC(CCn1cnc2cnc(N)nc21)COC(C)=O	False
CCCCCC(C)N (stereo unspecified)	False
COc1cc(OC)c2c(c1)O[C@H](c1ccc(OC)c(OC)c1)[C@@H](O)C2	False
COc1ccc2c(c1)OC[C@@H](Cc1ccc(OC)c(OC)c1)[C@H]2O	False
CC(C)CC1C(=O)N2CCC[C@H]2C2(O)O[C@](NC(=O)C3C=C4c5cccc6[nH]c(Br)c(c56)C[C@H]4N(C)C3)(C(C)C)C(=O)N12 (stereo partly specified)	False
COc1ccc(CC2c3cc(OC)c(OC)cc3CCN2C)cc1OC (stereo unspecified)	False
